# credit: PubChem BioAssay AID2778

# target: Menin (Homo sapiens)
# assay_method_text: Confirmation of Inhibitors Targeting the Menin-MLL Interaction in MLL Related Leukemias: Confirmation in an HTRF (commercial TR-FRET) Assay using His-tagged menin and biotin-labeled MLL peptide
# protocol_conditions: His-menin / biotin-MLL peptide binding; series mostly up to 126 µM
Results filed as inconclusive are left out. Activity calls are given as the source filed them. Calls follow the shape of the dose curve; as a rule, active = well fitted inhibition curve with a large enough effect; inconclusive = small, poorly fitted or top-dose-only effect, or effect the other way; inactive = flat fitted curve, though single readings scatter.
Choose one outcome from this list and give only that: active, inactive

>>> print(df.to_string())
                                   compound                target  classification
0  COC(=O)COc1ccc(C(C2C(=O)CC(C)(C)CC2=O)C2C(=O)CC(C)(C)CC2=O)cc1  Menin (Homo sapiens)        inactive
1     Cc1ccc(NS(=O)(=O)c2csc(C(N)=O)c2)cc1C  Menin (Homo sapiens)        inactive
2  CCN1C(=O)[C@@H]2C(C(=O)c3cnccn3)=NN[C@@H]2C1=O  Menin (Homo sapiens)        inactive
3  CC(=O)c1cccc(NS(=O)(=O)c2ccc(N/C=C\C(=O)c3ccc(F)cc3)cc2)c1  Menin (Homo sapiens)        inactive
4              CCn1ncc(C(=O)Nc2cc(C)on2)c1C  Menin (Homo sapiens)        inactive

Hey, what did the test say about O=C(CS)Nc1ccc2ccccc2c1 ?
inactive

Record lookup: outcome of this test for CCN(CCn1cccn1)Cc1ccccc1OCC(O)CN1CCc2ccccc2C1 (stereo unspecified) ?
inactive

For this compound, state the assay outcome: Cc1cc(C)c2c(=O)cc(C(=O)NCc3ccccc3)oc2c1
inactive

###

# target: Menin (Homo sapiens) (UniProt O00255)
# Sequence (O00255 whole entry, looked up): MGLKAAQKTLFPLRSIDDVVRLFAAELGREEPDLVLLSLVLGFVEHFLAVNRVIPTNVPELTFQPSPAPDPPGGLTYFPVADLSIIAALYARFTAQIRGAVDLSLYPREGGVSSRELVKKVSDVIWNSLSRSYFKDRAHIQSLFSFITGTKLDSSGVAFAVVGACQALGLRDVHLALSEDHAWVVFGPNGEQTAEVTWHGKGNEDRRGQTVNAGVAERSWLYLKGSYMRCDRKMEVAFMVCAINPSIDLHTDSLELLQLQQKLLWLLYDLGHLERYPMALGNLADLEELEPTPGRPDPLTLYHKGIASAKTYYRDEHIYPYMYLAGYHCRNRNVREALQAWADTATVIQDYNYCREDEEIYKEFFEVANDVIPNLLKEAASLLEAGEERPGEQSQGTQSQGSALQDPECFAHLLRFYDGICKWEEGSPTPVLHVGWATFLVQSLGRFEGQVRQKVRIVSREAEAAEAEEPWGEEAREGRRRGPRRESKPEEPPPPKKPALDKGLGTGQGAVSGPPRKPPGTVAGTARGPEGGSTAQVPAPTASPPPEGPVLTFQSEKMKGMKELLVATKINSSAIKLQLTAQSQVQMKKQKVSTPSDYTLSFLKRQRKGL
# assay_method_text: Confirmation of Inhibitors Targeting the Menin-MLL Interaction in MLL Related Leukemias: Confirmation in an HTRF (commercial TR-FRET) Assay using His-tagged menin and biotin-labeled MLL peptide
# protocol_conditions: His-menin / biotin-MLL peptide binding; series mostly up to 126 µM
Inconclusive results are not listed. Active and inactive are the calls of the source. The call rests on the fitted dose curve; in most records, active means well fitted inhibition curve with a large enough effect; inconclusive means small, poorly fitted or top-dose-only effect, or effect the other way; inactive means flat fitted curve, though single readings scatter.
Outcome (select one): active, inactive

Examples with answers:
                                   molecule  classification
0  CCCOc1ccc(C(=O)NNC(=S)NC(=O)c2cc(-c3ccc(Cl)cc3)nc3ccccc23)cc1        inactive
1             O=C(Nc1ccc2c(c1)OCO2)c1ccccc1        inactive
2  Cc1ccc(C(C[N+](=O)[O-])c2c(C)[nH]n(-c3ccccc3)c2=O)cc1 (stereo not given)        inactive

Could you kindly confirm the outcome this assay logged for NC(=O)[C@@H]1CCCNc2c(I)cc([N+](=O)[O-])cc2C(=O)N[C@@H](CCCN=C(N)N)C(=O)N[C@@H](CCCN=C(N)N)C(=O)N1 ?
inactive

So what was the verdict on Cc1ccc(Nc2nc(N)[nH]c(=O)c2N=O)cc1 in this test?
inactive

How was C[N+]1(CCNC(=O)/C=N/O)CCCCC1 classified in this test?
inactive

Tell me the assay call for COc1ccc(C)cc1N(C(=O)c1snc(C(N)=O)c1N)C(C(=O)NC1CCCC1)c1ccc(F)cc1 (stereo not given) please.
inactive

Which result was noted for this molecule in the test: CC(=O)NC1C(=O)N(CCN2CCOCC2)c2ccc(F)cc21 (stereo not given)
inactive

Could you kindly confirm the outcome this assay logged for COC(=O)[C@H](C)NC(=O)c1cc2c(cn1)[nH]c1ccccc12 ?
active

Lab log entry: C=CCN(CC=C)S(=O)(=O)c1ccc(NC(=S)NC(=O)/C=C/c2cccc3ccccc23)cc1 — outcome as called in the assay?
inactive

###

# target: Menin (Homo sapiens) (UniProt O00255)
# assay_method_text: Confirmation of Inhibitors Targeting the Menin-MLL Interaction in MLL Related Leukemias: Confirmation in an HTRF (commercial TR-FRET) Assay using His-tagged menin and biotin-labeled MLL peptide
# protocol_conditions: His-menin / biotin-MLL peptide binding; series mostly up to 126 µM
Results filed as inconclusive are left out. Activity calls are given as the source filed them. Calls follow the shape of the dose curve; as a rule, active = well fitted inhibition curve with a large enough effect; inconclusive = small, poorly fitted or top-dose-only effect, or effect the other way; inactive = flat fitted curve, though single readings scatter.
recorded_endpoint: outcome

In [3]: df
Out[3]:
                                   compound    result
0             O=c1cc(O)c2ccccc2n1Cc1ccccc1F  inactive
1               Cc1ccccc1-c1cncnc1NC1CCNCC1  inactive
2  CCOc1ccc(CCNC(=O)C(C)N2C(=O)CC(C)(C)Sc3ccccc32)cc1 (stereo not drawn)  inactive

###

# target: Menin (Homo sapiens) (UniProt O00255)
# assay_method_text: Confirmation of Inhibitors Targeting the Menin-MLL Interaction in MLL Related Leukemias: Confirmation in an HTRF (commercial TR-FRET) Assay using His-tagged menin and biotin-labeled MLL peptide
# protocol_conditions: His-menin / biotin-MLL peptide binding; series mostly up to 126 µM
Records with an inconclusive call do not appear. Activity calls are given as the source filed them. Calls follow the shape of the dose curve; as a rule, active = well fitted inhibition curve with a large enough effect; inconclusive = small, poorly fitted or top-dose-only effect, or effect the other way; inactive = flat fitted curve, though single readings scatter.
A correct response names exactly one class from Yes = active, No = inactive

Examples from the recorded data:
compound	target	classification
CC1(C)CN=C(N2CCN(c3ncnc4sc5c(c34)CCCC5)CC2)S1	Menin (Homo sapiens) (UniProt O00255)	Yes
Cc1ccccc1-c1n[nH]c(=S)n1C	Menin (Homo sapiens) (UniProt O00255)	No
Nc1cccc2c1C(=O)N(C(=O)c1ccco1)C2=O	Menin (Homo sapiens) (UniProt O00255)	No

Status in this test for Cc1c(F)cccc1NS(=O)(=O)c1ccc2c(c1)c(C)cc(=O)n2C ?
No

Can you look up the reported call for CCCNC(=O)c1ccc2c(=O)c(O)c(C)[nH]c2c1 for me?
No

Outcome logged for COc1ccc(C2=C(CN(C)C)C(c3ccccc3)c3ccccc3O2)cc1 (stereo not drawn) in this assay:
No

Dear colleague, could you share the recorded outcome for Clc1ccc(-c2nnc(-c3ccccc3)nc2-c2c[nH]c3ccccc23)cc1 when you have a moment?
No

Hey, what did the test say about O=C(CSc1nnc(-c2c[nH]c3ccccc23)o1)N1c2ccccc2CCc2ccccc21 ?
No

I'd appreciate the recorded outcome for O=C(N1CCOCC1)N1CCN(S(=O)(=O)c2ccc(Cl)cc2)CC1 from this test.
No

What outcome does the record of this test show for CCOc1ccc(NC(=O)c2cccc(OC(=S)N3CCC(C)CC3)c2)cc1 ?
No

###

# target: Menin (Homo sapiens)
# assay_method_text: Confirmation of Inhibitors Targeting the Menin-MLL Interaction in MLL Related Leukemias: Confirmation in an HTRF (commercial TR-FRET) Assay using His-tagged menin and biotin-labeled MLL peptide
# protocol_conditions: His-menin / biotin-MLL peptide binding; series mostly up to 126 µM
Inconclusive results are not listed. Active and inactive are the calls of the source. Calls come from the whole dose curve; as a rule, active = well fitted inhibition curve with a large enough effect; inconclusive = small, poorly fitted or top-dose-only effect, or effect the other way; inactive = flat fitted curve, though single readings scatter.
Just give me one of these, please: TRUE for active, FALSE for inactive

>>> df
                                   compound  classification
0  NC(=O)C1CCN(C2=C(Cl)C(=O)c3ccccc3C2=O)CC1           FALSE

Look up the recorded call for C[C@@H]1CN(C(=O)c2nc3ccc(Cl)cn3c2CNCC[C@@H]2C[C@@H]3C=C[C@H]2C3)C[C@H](C)O1 in this test.
FALSE

For COc1ccccc1N(CC1CO1)S(=O)(=O)c1ccccc1 (stereo unspecified) , which call appears in the assay record?
FALSE

###

# target: Menin (Homo sapiens) (UniProt O00255)
# assay_method_text: Confirmation of Inhibitors Targeting the Menin-MLL Interaction in MLL Related Leukemias: Confirmation in an HTRF (commercial TR-FRET) Assay using His-tagged menin and biotin-labeled MLL peptide
# protocol_conditions: His-menin / biotin-MLL peptide binding; series mostly up to 126 µM
# From the text: qHTS Assay for Inhibitors Targeting the Menin-MLL Interaction in MLL Related Leukemias NIH Chemical Genomics Center [NCGC] NIH Molecular Libraries Probe Centers Network [MLPCN] […] We have developed and optimized a fluorescence polarization-based assay for the identification of Menin-MLL inhibitors. […] The present assay uses an alternate technology to confirm hits from the primary screen - homogeneous time resolved fluorescence (HTRF). […]
Records with an inconclusive call do not appear. Active and inactive are the calls of the source. Calls come from the whole dose curve; as a rule, active = well fitted inhibition curve with a large enough effect; inconclusive = small, poorly fitted or top-dose-only effect, or effect the other way; inactive = flat fitted curve, though single readings scatter.
// classify into active, inactive

>>> df
                                   compound  classification
0              CCCCC(=O)NC(=S)Nc1nnn(CCC)n1        inactive
1  CN1CCN(CC(=O)Nc2ccc(S(=O)(=O)N(C)C)cc2)CC1        inactive
2       O=C(Cn1nc(-c2ccccc2)ccc1=O)N1CCCCC1        inactive
3  CCOc1cc(CNCCc2ccc(S(N)(=O)=O)cc2)ccc1OCc1ccccc1          active
4  CCCC(=O)NC(c1ccccc1Cl)c1ccc2cccnc2c1O (stereo not given)        inactive
5  Cc1ccc2nc(-c3ccc(NC(=O)COC(=O)c4ccc(Br)o4)cc3)sc2c1        inactive
6                O=C(NNCS(=O)(=O)O)c1ccncc1        inactive
7  NC(=NCCCCCCN=C(N)/N=C(\N)Nc1ccc(Cl)cc1)/N=C(\N)Nc1ccc(Cl)cc1          active
8  COc1ccc(NC(=O)N2CC[C@@]3(CCCN(C(=O)c4csnn4)C3)C2)cc1        inactive

Kindly consider the entry below.
Just curious, what result did COc1ccc(OC)c(C2C3=C(N=c4s/c(=C\c5cccc(O)c5)c(=O)n42)c2ccccc2CC3)c1 (stereo not given) get here?
inactive
